Molecular target: Human BCL6 protein (N-terminal HiBiT tagged BCL6 in HT1080 cells) (Homo sapiens, UniProt P41182+Q96SW2)
Construct: Human BCL6 protein coding open reading frame; expressed in transfected cells; host or cells: HT1080 (ATCC CCL-121), stably transduced with lentivirus pLV-UBC-N-HiBiT-BCL6-PGK-puro
Test: HiBiT based BCL6 degradation assay
Type: cell-based
Details: HT1080 cells expressing N-terminal HiBiT tagged BCL6; 5 hours incubation; BCL6 degradation normalized with DMSO control
Quantity Name: Ymin (5 hr)

Recorded Ymin (5 hr), per entry:
CNC(=O)COc1cc2cc(Nc3nc(N4CCCC5(CN(c6ccc7c(C8CCC(=O)NC8=O)nn(C)c7c6)C5)C4)ncc3Cl)ccc2n(C)c1=O (stereo not drawn) = ++ (50% < Ymin ≤ 70%)
CNC(=O)COc1cc2cc(Nc3nc(N4CCO[C@H](COc5ccc6c(C7CCC(=O)NC7=O)nn(C)c6c5)C4)ncc3Cl)ccc2n(C)c1=O (stereo partly drawn) [Compound 317a] = +++ (25% < Ymin ≤ 50%)
CNC(=O)COc1cc2cc(Nc3nc(N4CCN(CC5CCN(c6cccc7c(C8CCC(=O)NC8=O)nn(C)c67)CC5)[C@H](C)C4)ncc3Cl)ccc2n(C)c1=O (stereo partly drawn) [Compound 308a] = ++++ (Ymin ≤ 25%)
CNC(=O)COc1cc2cc(Nc3nc(N4CCC(OC5CCN(c6cccc7c(C8CCC(=O)NC8=O)nn(C)c67)CC5)CC4)ncc3Cl)ccc2n(C)c1=O (stereo not drawn) = ++++ (Ymin ≤ 25%)
CNC(=O)COc1cc2cc(Nc3nc(N4CCN(CC5CCN(c6cccc7c(C8CCC(=O)NC8=O)nn(C)c67)CC5)[C@@H](C)C4)ncc3Cl)ccc2n(C)c1=O (stereo partly drawn) [Compound 308b] = ++++ (Ymin ≤ 25%)
CC(=O)COc1cc2cc(Nc3nc(N4CCN(CC5CCN(c6cccc7c(C8CCC(=O)NC8=O)nn(C)c67)CC5)[C@@H](C)C4)ncc3Cl)ccc2n(C)c1=O (stereo partly drawn) [Compound 347a] = ++++ (Ymin ≤ 25%)

For each of the items listed, what is its Ymin (5 hr)?
1. CNC(=O)COc1cc2cc(Nc3nc(N4CCN(CC5CCN(c6cccc7c(C8CCC(=O)NC8=O)nn(C)c67)CC5)CC4)ncc3Cl)ccc2n(C(C)C)c1=O (stereo not drawn)
2. CNC(=O)COc1cc2cc(Nc3nc(N4CCC[C@@H](CCNc5ccc6c(C7CCC(=O)NC7=O)nn(C)c6c5)C4)ncc3Cl)ccc2n(C)c1=O (single isomer, unassigned) [Compound 290b]
3. CNC(=O)COc1cc2cc(Nc3nc(N4CCC(CN5CCN(c6cccc7c(C8CCC(=O)NC8=O)nn(C)c67)CC5)CC4)ncc3Cl)ccc2n(C)c1=O (stereo not drawn)
4. CNC(=O)COc1cc2cc(Nc3nc(N4CCC[C@@H]4CNc4cccc5c(C6CCC(=O)NC6=O)nn(C)c45)ncc3Cl)ccc2n(C)c1=O (stereo partly drawn) [Compound 300a]
5. CNC(=O)COc1cc2cc(Nc3cc(N4CCN(CC5CCN(c6cccc7c(C8CCC(=O)NC8=O)nn(C)c67)CC5)CC4)ncc3Cl)ccc2n(C)c1=O (stereo not drawn)

["++++ (Ymin ≤ 25%)", "+++ (25% < Ymin ≤ 50%)", "++++ (Ymin ≤ 25%)", "++ (50% < Ymin ≤ 70%)", "++++ (Ymin ≤ 25%)"]

Each compound below has a reported value. Please supply its Ymin (5 hr).
1. CNC(=O)COc1cc2cc(Nc3nc(N4CCC5CN(c6cccc7c(C8CCC(=O)NC8=O)nn(C)c67)CC5C4)ncc3Cl)ccc2n(C)c1=O (stereo not drawn)
2. CNC(=O)COc1cc2cc(Nc3nc(N4CCC[C@H](COc5ccc6c(C7CCC(=O)NC7=O)nn(C)c6c5)C4)ncc3Cl)ccc2n(C)c1=O (stereo partly drawn) [Compound 302a]
3. CNC(=O)COc1cc2cc(Nc3nc(N4CCC(CN5CCN(c6ccc7c(C8CCC(=O)NC8=O)nn(C)c7c6)CC5)CC4)ncc3Cl)ccc2n(C)c1=O (stereo not drawn)

1: +++ (25% < Ymin ≤ 50%); 2: ++ (50% < Ymin ≤ 70%); 3: ++++ (Ymin ≤ 25%)

Give Ymin (5 hr) for each of the items listed below.
1. CNC(=O)COc1cc2cc(Nc3nc(N4CCN(CC5CCC6(CC5)CN(c5cccc7c(C8CCC(=O)NC8=O)nn(C)c57)C6)CC4)ncc3Cl)ccc2n(C)c1=O (stereo not drawn)
2. CNC(=O)COc1cc2cc(Nc3nc(N4CCC[C@H]4CNc4cccc5c(C6CCC(=O)NC6=O)nn(C)c45)ncc3Cl)ccc2n(C)c1=O (stereo partly drawn) [Compound 300b]
3. CNC(=O)COc1cc2cc(Nc3nc(N4CCC[C@@H]4CNc4ccc5c(C6CCC(=O)NC6=O)nn(C)c5c4)ncc3Cl)ccc2n(C)c1=O (stereo partly drawn) [Compound 279b]
4. CNC(=O)COc1cc2cc(Nc3nc(N4C[C@@H](C)N(CC5CCN(c6cccc7c(C8CCC(=O)NC8=O)nn(C)c67)CC5)[C@@H](C)C4)ncc3Cl)ccc2n(C)c1=O (stereo partly drawn) [Compound 336a]
5. CNC(=O)COc1cc2cc(Nc3nc(N4CCC[C@H](CNc5cccc6c(C7CCC(=O)NC7=O)nn(C)c56)C4)ncc3Cl)ccc2n(C)c1=O (stereo partly drawn) [Compound 266b]
6. CC(=O)COc1cc2cc(Nc3nc(N4CCC5(CCN(CC6CCN(c7ccc8c(C9CCC(=O)NC9=O)nn(C)c8c7)CC6)CC5)CC4)ncc3Cl)ccc2n(C)c1=O (stereo not drawn)
7. CNC(=O)COc1cc2cc(Nc3nc(NC[C@@H]4CCCN(c5cccc6c(C7CCC(=O)NC7=O)nn(C)c56)C4)ncc3Cl)ccc2n(C)c1=O (stereo partly drawn) [Compound 303a]

1: +++ (25% < Ymin ≤ 50%); 2: + (Ymin > 70%); 3: +++ (25% < Ymin ≤ 50%); 4: ++++ (Ymin ≤ 25%); 5: ++ (50% < Ymin ≤ 70%); 6: ++++ (Ymin ≤ 25%); 7: ++ (50% < Ymin ≤ 70%)

Batch lookup, Ymin (5 hr) per entry.
1. CNC(=O)COc1cc2cc(Nc3nc(N4CCC[C@@H](Nc5ccc6c(C7CCC(=O)NC7=O)nn(C)c6c5)C4)ncc3Cl)ccc2n(C)c1=O (stereo partly drawn) [Compound 280b]
2. CNC(=O)COc1cc2cc(Nc3nc(NC[C@H]4CC[C@H](Nc5ccc(C6CCC(=O)NC6=O)cc5)CC4)ncc3Cl)ccc2n(C)c1=O (stereo partly drawn) [Compound 277a]

+ (Ymin > 70%)
+ (Ymin > 70%)

Given the entry CNC(=O)COc1cc2cc(Nc3nc(NC[C@H]4CC[C@@H](Nc5cccc(C6CCC(=O)NC6=O)c5)CC4)ncc3Cl)ccc2n(C)c1=O (stereo partly drawn) [Compound 262a] , report its measured Ymin (5 hr).
++ (50% < Ymin ≤ 70%)
